// data source = paper PMC9564337

assay_procedure: in vitro
Format: in vitro ADME
condition_parameters: human, plasma, pH 7.4, % Intact Peptide in Plasma after 1 h
# maps each entry to its remaining at 1 h, 100 µM
Entry rule: numbers only, all in %.

Consider the worked cases shown below.
{"compound_string": "CN[C@@H](CCCNC(=N)N)C(=O)N[C@@H](CCCNC(=N)N)C(=O)N1CCC[C@H]1C(=O)N[C@@H](Cc1ccc(O)cc1)C(=O)N[C@H](C(=O)N[C@@H](CC(C)C)C(=O)O)C1CCCC1", "remaining at 1 h, 100 µM, %": 99}
{"compound_string": "CN[C@@H](CCCNC(=N)NC(=O)NCCOCCOCCN)C(=O)N[C@@H](CCCNC(=N)N)C(=O)N1CCC[C@H]1C(=O)N[C@@H](Cc1ccc(O)cc1)C(=O)N[C@H](C(=O)N[C@@H](CC(C)C)C(=O)O)C(C)(C)C", "remaining at 1 h, 100 µM, %": 97}
{"compound_string": "CC[C@H](C)[C@H](NC(=O)[C@H](Cc1ccc(O)cc1)NC(=O)[C@@H]1CCCN1C(=O)[C@H](CCCNC(=N)N)NC(=O)[C@H](CCCNC(=N)N)NC)C(=O)N[C@@H](CC1CC1)C(=O)O", "remaining at 1 h, 100 µM, %": 25}
{"compound_string": "CC(C)C[C@H](NC(=O)[C@@H](NC(=O)[C@H](Cc1ccc(O)cc1)NC(=O)[C@@H]1CCCN1C(=O)[C@H](CCCNC(=N)NC(=O)NCCCCNC(=O)CN1CCN(CC(=O)O)CCN(CC(=O)O)CCN(CC(=O)O)CC1)N(C)C(=O)[C@@H](N)CCCNC(=N)N)C(C)(C)C)C(=O)O", "remaining at 1 h, 100 µM, %": 97}

Note: attention shifts to another entry.
Q. Please give the measured remaining at 1 h, 100 µM for this molecule: CN[C@@H](CCCNC(=N)N)C(=O)N[C@@H](CCCNC(=N)N)C(=O)N1CCC[C@H]1C(=O)N[C@@H](Cc1ccc(O)cc1)C(=O)N[C@H](C(=O)N[C@@H](CC(C)C)C(=O)O)C1CC1
A. 88

---

# maps each entry to its NTS1R Selectivity (Ratio Ki (NTS2R)/Ki (NTS1R))
assay_target: hNTS1R (Homo sapiens, UniProt P30989)
Construct: intact HT-29 colon carcinoma cells expressing the hNTS1R; host or cells: HT-29 human colon carcinoma cells
Sequence (P30989 whole entry): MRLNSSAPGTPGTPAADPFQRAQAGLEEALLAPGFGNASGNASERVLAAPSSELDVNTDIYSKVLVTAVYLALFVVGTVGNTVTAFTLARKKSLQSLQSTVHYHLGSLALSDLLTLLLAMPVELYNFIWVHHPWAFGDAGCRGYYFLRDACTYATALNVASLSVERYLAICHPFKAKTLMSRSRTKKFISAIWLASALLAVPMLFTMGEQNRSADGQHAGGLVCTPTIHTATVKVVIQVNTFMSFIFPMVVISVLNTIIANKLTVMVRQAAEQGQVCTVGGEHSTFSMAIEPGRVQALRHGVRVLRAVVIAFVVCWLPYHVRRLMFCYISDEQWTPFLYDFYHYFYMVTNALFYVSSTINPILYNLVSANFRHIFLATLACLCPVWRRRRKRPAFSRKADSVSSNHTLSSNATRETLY
assay_procedure: radioligand competition binding with [3H]UR-MK300 at intact HT-29 cells
From the text: Specific binding data (obtained by subtracting unspecific binding from total binding) were normalized (100% = specifically bound radioligand in the absence of competitor) and plotted over log(concentration of competitor) followed by a four-parameter logistic fit (SigmaPlot 12.5, Systat Software, San José, CA, USA) (note: in the case of 40, the lower curve plateau of the sigmoidal fit was constrained to >0). […]
Just the number, please, no unit after it.

Consider the worked cases shown below.
{"compound": "CN[C@@H](CCCNC(N)=NC(=O)NCCCCNC(=O)CN1CCN(CC(=O)O)CCN(CC(=O)O)CCN(CC(=O)O)CC1)C(=O)N[C@@H](CCCNC(=N)N)C(=O)N1CCC[C@H]1C(=O)N[C@@H](Cc1ccc(O)cc1)C(=O)N[C@H](C(=O)N[C@@H](CC(C)C)C(=O)O)C(C)(C)C [Compound 16]", "assay_target": "hNTS1R (Homo sapiens, UniProt P30989)", "measured_number": 4.5}
{"compound": "CN[C@@H](CCCNC(N)=NC(=O)NCCCCN)C(=O)N[C@@H](CCCNC(=N)N)C(=O)N1CCC[C@H]1C(=O)N[C@@H](Cc1ccc(O)cc1)C(=O)N[C@H](C(=O)N[C@@H](CC(C)C)C(=O)O)C(C)(C)C", "assay_target": "hNTS1R (Homo sapiens, UniProt P30989)", "measured_number": 6.8}

Note: attention shifts to another entry.
Q. Param readout = NTS1R Selectivity (Ratio Ki (NTS2R)/Ki (NTS1R)); param system = hNTS1R (Homo sapiens, UniProt P30989); param query = CC(C)C[C@H](NC(=O)[C@@H](NC(=O)[C@H](Cc1ccc(O)cc1)NC(=O)[C@@H]1CCCN1C(=O)[C@H](CCCNC(=N)NC(=O)NCCCCNC(=O)CN1CCN(CC(=O)O)CCN(CC(=O)O)CCN(CC(=O)O)CC1)N(C)C(=O)[C@@H](N)CCCNC(=N)N)C(C)(C)C)C(=O)O ; response: value
A. 6.4

---

assay_procedure: in vivo
condition_parameters: female, NMRI nude (nu/nu), mouse, total radioactivity, Uptake (%ID/g) tumor
Procedure: 8–12 weeks old female NMRI nude (nu/nu) mice (body weight 22–32 g) (Charles River, Sulzfeld, Germany) were kept under specified pathogen free (SPF) conditions at 23 °C, 55% relative humidity and a 12 h light/dark cycle in the central animal facility of the University of Regensburg using type III cages from Tecniplast (Hohenpeißenberg, Germany). […] Aliquots of the tracer stock were diluted in PBS to give a volume of 200 µL. […] Mice were killed 45 min p.i. and analyzed as described above. […]
measured_quantity: tissue uptake at 10 min (%ID/g)
Entry rule: numbers only, all in %ID/g.

Q. Please give the measured tissue uptake at 10 min for this compound: CC[C@H](C)[C@H](NC(=O)[C@@H](NC(=O)[C@@H]1CCCN1C(=O)[C@H](CCCNC(=N)N)NC(=O)[C@H](CCCNC(N)=NC(=O)NCCCCNC(=O)CN1CCN(CC(=O)O)CCN(CC(=O)O)CCN(CC(=O)O)CC1)NC)C(C)(C)c1ccc(O)cc1)C(=O)N[C@@H](CC(C)C)C(=O)O [[^68Ga]56, metal not drawn]
A. 3.6

---

assay_procedure: in vitro
Assay type: in vitro ADME
condition_parameters: human, plasma, pH 7.4, % Intact Peptide in Plasma after 24 h
Residues, ends and D or L forms follow the SMILES beside them.
# maps each entry to its remaining at 24 h, 100 µM
Entry rule: numbers only, all in %.

{"compound": "CN[C@@H](CCCNC(=N)N)C(=O)N[C@@H](CCCNC(=N)N)C(=O)N1CCC[C@H]1C(=O)N[C@@H](Cc1ccc(O)cc1)C(=O)N[C@@](C)(CC(C)C)C(=O)N[C@@H](CC(C)C)C(=O)O [Compound 44] (HELM PEPTIDE1{[meR].R.P.Y.[CC(C)C[C@](C)(N[*:1])C(=O)[*:2]].L}$$$$V2.0)", "measured_number": 91}
{"compound": "CN[C@@H](CCCNC(N)=NC(=O)NCCCCNC(=O)CN1CCN(CC(=O)O)CCN(CC(=O)O)CCN(CC(=O)O)CC1)C(=O)N[C@@H](CCCNC(=N)N)C(=O)N1CCC[C@H]1C(=O)N[C@H](C(=O)N[C@H](C(=O)N[C@@H](CC(C)C)C(=O)O)C(C)(C)C)C(C)(C)c1ccc(O)cc1 [Compound 57]", "measured_number": 68}
{"compound": "CC[C@H](C)[C@H](NC(=O)[C@H](Cc1ccc(O)cc1)NC(=O)[C@@H]1CCCN1C(=O)[C@H](CCCNC(=N)NC(=O)NCCCCN)NC(=O)[C@H](CCCNC(=N)N)NC)C(=O)N[C@@H](CC(C)C)C(=O)O [Compound 9]", "measured_number": 3}
{"compound": "CC[C@@H](C)[C@H](NC(=O)[C@H](Cc1ccc(O)cc1)NC(=O)[C@@H]1CCCN1C(=O)[C@H](CCCNC(=N)N)NC(=O)[C@H](CCCNC(=N)N)NC)C(=O)N[C@@H](CC(C)C)C(=O)O [Compound 38]", "measured_number": 70}

Q. Please give the measured remaining at 24 h, 100 µM for this compound: CN[C@@H](CCCNC(=N)NC(=O)NCCOCCOCCN)C(=O)N[C@@H](CCCNC(=N)N)C(=O)N1CCC[C@H]1C(=O)N[C@@H](Cc1ccc(O)cc1)C(=O)N[C@H](C(=O)N[C@@H](CC(C)C)C(=O)O)C(C)(C)C [Compound 12]
A. 94

Q. Please give the measured remaining at 24 h, 100 µM for this compound: CC[C@H](C)[C@H](NC(=O)[C@H](NC(=O)[C@@H]1CCCN1C(=O)[C@H](CCCNC(=N)N)NC(=O)[C@H](CCCNC(=N)N)NC)C(C)(C)c1ccc(O)cc1)C(=O)N[C@@H](CC(C)C)C(=O)O [Compound 49]
A. 94

Q. Please give the measured remaining at 24 h, 100 µM for this compound: CC[C@H](C)[C@H](NC(=O)[C@@H](NC(=O)[C@@H]1CCCN1C(=O)[C@H](CCCNC(=N)N)NC(=O)[C@H](CCCNC(N)=NC(=O)NCCCCNC(=O)CN1CCN(CC(=O)O)CCN(CC(=O)O)CCN(CC(=O)O)CC1)NC)C(C)(C)c1ccc(O)cc1)C(=O)N[C@@H](CC(C)C)C(=O)O [Compound 56]
A. 77
